List of z-score values.
assay: basal HepG2 mitochondrial membrane potential changes, profiling panel, cell-based, JC-1 fluorescence, 24 h, 100 nL compound (AID 1167); details: higher = more signal; note: test concentration not given here
metric: z-score

{"compound": "O=C(NC1CC1)[C@@H]1c2ccccc2C(=O)N(C2CCCCC2)[C@H]1c1ccc(CO)cc1", "reported_result": 1.38}
{"compound": "CN1C(=O)C2C=CC(C(O)c3ccc(I)cc3)N(N(c3ccccc3)c3ccccc3)C2C1=O (stereo unspecified)", "reported_result": -0.994}
{"compound": "CC(=O)NCCCC[C@@H]1NC(=O)[C@H]2C[C@@H](C(=O)NCCCCCN)[C@@H](c3ccc(O)cc3)N2C1=O", "reported_result": -0.659}
{"compound": "COCCOC(=O)N1C(=O)[C@@]2(c3cc(C#CC4=CCCCC4)ccc31)[C@H](c1ccc(O)cc1)N1[C@H](c3ccccc3)[C@H](c3ccccc3)OC(=O)[C@H]1[C@@H]2C(=O)N1CCc2cc(OC)c(OC)cc2C1", "reported_result": 0.0573}
{"compound": "CC(C)(C)OC(=O)CC[C@@]1(C(N)=O)N=C(c2ccc(OCCCO)cc2)O[C@@H]1c1ccccc1CN=[N+]=[N-]", "reported_result": -1.08}
{"compound": "C=C(C(=O)CC[C@H](OC(=O)c1ccccc1-c1ccccc1C(=O)O)c1ccc(OCCO)cc1)C(C)C", "reported_result": 0.17}
{"compound": "Cc1c(NC(=O)/C(C#N)=C/C=C/c2ccc([N+](=O)[O-])cc2)c(=O)n(-c2ccccc2)n1C", "reported_result": -1.19}
{"compound": "C=CC[C@]12N=C(c3ccc(OCCCO)cc3)O[C@H]1c1ccccc1N(CCC)C2=O", "reported_result": 0.788}
{"compound": "COc1ccc(-c2cc3c(c(CCc4ccccc4)n2)[Si](C(C)C)(C(C)C)O[C@H]3c2ccccc2)cn1", "reported_result": -2.71}
{"compound": "C=CC[C@]1(C(=O)NCCN2CCOCC2)N=C(c2ccc(OCCCO)cc2)O[C@H]1c1ccccc1", "reported_result": -0.607}
{"compound": "COC(=O)Cn1c(C(=O)N(C)C)cc2c1C[C@H]1CN(C(=O)c3ccccc3)[C@@](Cc3ccccc3)(C(=O)OC)[C@@H]21", "reported_result": -1.11}
{"compound": "CCCCC(=C=CC[C@H](O)c1ccccc1OCCO)CCO", "reported_result": -0.95}
{"compound": "CCOC(=O)C1=CC[C@@H](c2ccccc2)N(S(=O)(=O)c2ccc(C)cc2)[C@@H]1C#N", "reported_result": 0.43}
{"compound": "CCOC(=O)C1=CCC(c2ccncc2)N(S(=O)(=O)c2ccc(C)cc2)C1 (stereo unspecified)", "reported_result": -1.41}
{"compound": "O=C1O[C@H](c2ccccc2)[C@H](c2ccccc2)N2[C@H]1[C@@H](C(=O)Nc1nc3ccccc3s1)[C@]1(C(=O)Nc3ccccc31)[C@H]2c1ccccc1OCCO", "reported_result": -2.27}
{"compound": "CCCCN1CC=CC23O[C@@H]4/C=C\\CCC(C)OC(=O)C4[C@H]2C(=O)N(CCO)[C@@H]3C1=O (stereo partly specified)", "reported_result": 0.0609}

----------
assay: RPMI8226 myeloma cell viability, profiling panel, resazurin fluorescence, basal, 24 h, PK04 Diversity Set (AID 1180); conditions: higher = more signal;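 note: RPMI8826 multiple myeloma cell line at 5000 cells per well; test concentration not given here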

{"compound": "O=C1NC(=O)C2C1C=CC(C(O)C(c1ccccc1)c1ccccc1)N2Nc1ccccn1 (centres undefined)", "z-score": 0.261}
{"compound": "O=C1O[C@H](c2ccccc2)[C@H](c2ccccc2)N2[C@H]1[C@@H](C(=O)O)[C@]1(C(=O)Nc3ccccc31)[C@H]2c1ccc(OCCO)cc1", "z-score": 1.16}
{"compound": "CO[C@H]1O[C@H](CO)[C@@H](OC(=O)Nc2cccc(F)c2)[C@H](OC(=O)c2cc3ccccc3[nH]2)[C@H]1OC(=O)c1cc2ccccc2[nH]1", "z-score": -2.46}
{"compound": "CCCCCCc1nc(-c2ccc(OC)nc2)c(C)c2c1[Si](C(C)C)(C(C)C)OC2", "z-score": 0.781}

----------
experiment: small-molecule microarray binders of probe aLefty2, primary screen, biochemical, biotinylated probe, 635/667 nm fluorescence (AID 1094); details: higher = more signal;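 note: score merges spot fluorescence near 667 nm with spot signal-to-noise ratio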
List of composite z-score values.

{"compound": "COc1ccc(C(O)C2C=CC3C(=O)N(c4ccccc4)C(=O)C3N2Nc2ccccc2F)c2ccccc12 (configuration not stated)", "composite z-score": 0.582}
{"compound": "O=C1NC(=O)C2C1C=CC(C(O)C(c1ccccc1)c1ccccc1)N2Nc1ccccn1 (configuration not stated)", "composite z-score": 0.673}
{"compound": "CN(C)C(=O)[C@]1(CCS(=O)(=O)c2ccccc2)N=C(c2ccc(OCCCO)cc2)O[C@@H]1c1ccccc1CN=[N+]=[N-]", "composite z-score": -0.0079}
{"compound": "COC(=O)[C@@]1(Cc2ccc(F)cc2)[C@H]2c3cc(C(=O)N(C)C)n(Cc4cccc5ccccc45)c3C[C@H]2CN1C(=O)c1ccccc1", "composite z-score": 0.323}
{"compound": "O=C1O[C@H](c2ccccc2)[C@H](c2ccccc2)N2[C@H]1[C@@H](C(=O)Nc1nc3ccccc3s1)[C@]1(C(=O)Nc3ccccc31)[C@H]2c1ccccc1OCCO", "composite z-score": 0.229}
{"compound": "CCN1C(=O)C2CC(=O)C3C(CN(S(=O)(=O)c4ccc(C)cc4)C3c3ccc(C)cc3)C2C1=O (configuration not stated)", "composite z-score": -0.0176}
{"compound": "C=C(CCCC)/C(=C/C[C@@H](OC(C)=O)c1cccc(OCCO)c1)c1cc(C(=O)OC)ccc1OC", "composite z-score": -0.0524}

----------
assay: small-molecule microarray binders of probe aLefty2, primary screen, biochemical, biotinylated probe, 635/667 nm fluorescence (AID 1094); conditions: higher = more signal;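 note: score merges spot fluorescence near 667 nm with spot signal-to-noise ratio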
Classify on composite z-score using lower band = under -0.07, central band = from -0.07 up to 0.1, upper band = 0.1 and over

{"compound": "O=C(O)C1=CC[C@H]2C(=O)N(c3ccccc3)C(=O)[C@@H]12", "label_value": "central band"}
{"compound": "COc1ccc(C(O)C2C=CC3C(=O)N(C)C(=O)C3N2Nc2ccccc2)cc1 (stereo unspecified)", "label_value": "upper band"}
{"compound": "COc1ccc(C(=O)Nc2cccc(CN3C(=O)[C@]4(O[C@H](CC(=O)N(CCO)Cc5ccccc5)[C@@H]([Si](C)(C)c5ccc(OC)cc5)[C@@H]4C)c4ccccc43)c2)cc1", "label_value": "central band"}
{"compound": "O=C(NCC(F)(F)F)[C@@H]1c2ccccc2C(=O)N(Cc2cc(C(F)(F)F)cc(C(F)(F)F)c2)[C@H]1c1ccc(CO)cc1", "label_value": "lower band"}
{"compound": "CN1C(=O)C2C=CC(C(O)c3cccs3)N(N(c3ccccc3)c3ccccc3)C2C1=O (stereo unspecified)", "label_value": "central band"}
{"compound": "COc1ccc([Si](C)(C)[C@H]2[C@H](CC(=O)N(CCO)Cc3ccccc3)O[C@@]3(C(=O)N(Cc4ccc(N5C(=O)c6cccc7cccc5c67)cc4)c4ccccc43)[C@@H]2C)cc1", "label_value": "upper band"}
{"compound": "CCCC[C@@H](O)C1=C(C)Cn2c(=O)n(-c3ccccc3)c(=O)n2[C@H]1CO", "label_value": "lower band"}
{"compound": "C[C@H]1C2[C@H](Cc3ccccc3)NC(=O)[C@]23C(=O)N[C@@H](Cc2ccccc2)C(=O)N2CCC[C@H]2C(=O)NC/C=C/CC/C=C/C3[C@@H]2O[C@]12C (stereo partly specified)", "label_value": "central band"}
{"compound": "COc1cc(Cc2cc3c(c(-c4ccccc4)n2)[Si](C(C)C)(C(C)C)OC3)cc(OC)c1OC", "label_value": "lower band"}
{"compound": "CN1C(=O)C2C=CC(C(O)COCc3ccccc3)N(Nc3ccc([N+](=O)[O-])cc3[N+](=O)[O-])C2C1=O (stereo unspecified)", "label_value": "upper band"}
{"compound": "[N-]=[N+]=Nc1ccccc1C[C@@]1(C(=O)NCC(O)CO)N=C(c2ccc(OCCCO)cc2)O[C@@H]1c1ccccc1N=[N+]=[N-] (stereo partly specified)", "label_value": "upper band"}
{"compound": "C=CC[C@]1(C(=O)NCC(O)CO)N=C(c2ccc(OCCCO)cc2)O[C@H]1c1ccccc1CN=[N+]=[N-] (stereo partly specified)", "label_value": "upper band"}
{"compound": "O=C1c2ccccc2[C@@]2(Cc3ccccc3N(CC(F)(F)F)C2=O)[C@H](c2ccc(CO)cc2)N1Cc1ccccc1", "label_value": "lower band"}
{"compound": "C=C(C)C1CN([C@H](CO)c2ccccc2)C(=O)/C1=C\\c1ccccc1 (stereo partly specified)", "label_value": "lower band"}
{"compound": "CC(C)c1ccc(NN2C(C(O)C3=C[C@H]4C[C@@H](C3)C4(C)C)C=CC3C(=O)N(c4ccccc4)C(=O)C32)cc1 (stereo partly specified)", "label_value": "upper band"}
{"compound": "C[N+](C)(C)CCCC[C@@H]1NC(=O)[C@H]2C[C@@H](C(=O)O)[C@@H](c3ccc(O)cc3)N2C1=O", "label_value": "central band"}
{"compound": "O=C1OCC=C[C@H]2OC34C=CCN(Cn5nnc6ccccc65)C(=O)[C@H]3N(CCO)C(=O)[C@@H]4[C@@H]12 (stereo partly specified)", "label_value": "central band"}
{"compound": "C=C(CC1([C@@H](NP(=O)(c2ccccc2)c2ccccc2)[C@H]2C[C@@H]2CCCC)CC1)c1cccc(OC)c1", "label_value": "upper band"}
{"compound": "COc1ccc([Si](C)(C)[C@@H]2[C@@H](CC(=O)N3CCC[C@H]3CO)O[C@]3(C(=O)N(Cc4cccc(N5C(=O)c6cccc7cccc5c67)c4)c4ccccc43)[C@H]2C)cc1", "label_value": "lower band"}
{"compound": "O=C1OC[C@@H](c2ccccc2)n2cc(/C=C/c3ccccc3)cc21", "label_value": "central band"}
{"compound": "Cc1ccc(S[C@]2(C(=O)NCCN3CCOCC3)CC(=O)N(C(C)C)[C@@H]2c2ccc(CO)cc2I)cc1", "label_value": "upper band"}
{"compound": "[N-]=[N+]=Nc1ccccc1C[C@]1(C(=O)N2CCCCC2)N=C(c2ccc(OCCCO)cc2)O[C@H]1c1ccccc1", "label_value": "upper band"}
{"compound": "O=C1O[C@H](c2ccccc2)[C@H](c2ccccc2)N2[C@H]1[C@@H](C(=O)O)[C@]1(C(=O)Nc3ccccc31)[C@H]2c1ccc(OCCO)cc1", "label_value": "central band"}
{"compound": "Cc1ccc(S(=O)(=O)N2[C@@H](c3ccccc3)C(C(=O)O)=C[C@H]2C(C)(C)C)cc1", "label_value": "upper band"}
{"compound": "C=C[C@H](C)[C@@H](OC(=O)Nc1ccc(SC)cc1)c1ccc(OCCO)cc1", "label_value": "central band"}
{"compound": "C=C1C(=O)C=C2CN(C(=O)c3ccccc3)[C@@](Cc3ccc(F)cc3)(C(=O)OC)[C@@H]12", "label_value": "upper band"}
{"compound": "C=C[C@@H](CO)NS(=O)(=O)c1ccc(Br)cc1", "label_value": "lower band"}
{"compound": "CN1C(=O)C2C(C1=O)C1C=C(CCCO)C2C(C2CC2)N1C (stereo unspecified)", "label_value": "lower band"}
{"compound": "CC(C)c1ccc(NN2C(C(O)C3CCCCC3)C=CC3C(=O)N(c4ccccc4)C(=O)C32)cc1 (stereo unspecified)", "label_value": "central band"}
